Biological target: Human recombinant MMP-2 (Homo sapiens, UniProt P08253)
Sequence (P08253 110-660): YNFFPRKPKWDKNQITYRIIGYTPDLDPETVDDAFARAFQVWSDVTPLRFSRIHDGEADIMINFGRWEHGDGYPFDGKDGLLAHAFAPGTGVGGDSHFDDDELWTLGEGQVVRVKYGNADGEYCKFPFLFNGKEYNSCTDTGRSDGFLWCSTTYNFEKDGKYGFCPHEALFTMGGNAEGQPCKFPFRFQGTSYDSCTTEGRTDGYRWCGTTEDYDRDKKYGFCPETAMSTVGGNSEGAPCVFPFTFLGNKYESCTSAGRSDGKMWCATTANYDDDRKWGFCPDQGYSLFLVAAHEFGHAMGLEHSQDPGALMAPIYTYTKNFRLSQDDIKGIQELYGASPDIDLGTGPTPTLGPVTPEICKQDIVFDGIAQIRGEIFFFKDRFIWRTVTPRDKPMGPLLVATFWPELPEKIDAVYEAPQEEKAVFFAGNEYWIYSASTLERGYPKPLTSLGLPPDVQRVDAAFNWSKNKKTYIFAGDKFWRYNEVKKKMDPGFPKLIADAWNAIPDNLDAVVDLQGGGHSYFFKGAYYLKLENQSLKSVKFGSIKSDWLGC
Assay: In vitro MMP inhibition analysis (fluorogenic peptide substrate), MMP-2
Conditions: human recombinant enzyme; 4 μM substrate (A); apparent Ki without substrate correction
MEASURE_NAME: Ki (nM)
Just the number in nM, nothing appended.

// solved cases for Ki follow
MOLECULE: O=C(NO)C1(S(=O)(=O)c2ccc3nc(-c4ccsc4)sc3c2)CCOCC1
TARGET_OR_TEST_SYSTEM: Human recombinant MMP-2 (Homo sapiens, UniProt P08253)
Ki [nM]: 4.83
//
MOLECULE: O=C(NO)C1(S(=O)(=O)c2ccc3nc(-c4ccc(SC(F)(F)F)cc4)sc3c2)CCOCC1
TARGET_OR_TEST_SYSTEM: Human recombinant MMP-2 (Homo sapiens, UniProt P08253)
Ki [nM]: 2.76
//
MOLECULE: CCc1ccc(-c2nc3ccc(S(=O)(=O)C4(C(=O)NO)CCOCC4)cc3s2)cc1
TARGET_OR_TEST_SYSTEM: Human recombinant MMP-2 (Homo sapiens, UniProt P08253)
Ki [nM]: 1.51
//
MOLECULE: O=C(NO)C1(S(=O)(=O)c2ccc3nc(-c4ccc5c(c4)OCO5)sc3c2)CCOCC1
TARGET_OR_TEST_SYSTEM: Human recombinant MMP-2 (Homo sapiens, UniProt P08253)
Ki [nM]: 4.43
//
MOLECULE: O=C(NO)C1(S(=O)(=O)c2ccc(-c3ccc(OC(F)(F)C(F)F)cc3)nc2)CCOCC1 [Example 48]
TARGET_OR_TEST_SYSTEM: Human recombinant MMP-2 (Homo sapiens, UniProt P08253)
Ki [nM]: 0.222

## Input Dear colleague, I am looking for the recorded Ki of the following molecule: O=C(Cc1ccc(-c2ccc(S(=O)(=O)C3(C(=O)NO)CCOCC3)cn2)cc1)N1CCCCC1
## Output 305

## Input Next molecule: CCCCOc1ccc(-c2ccc(S(=O)(=O)C3(C(=O)NO)CCOCC3)s2)cc1
## Output 0.483
